Provenance of the data: paper PMC3532212

Experiment: Plasma concentrations in repeat-dosing study, satellite rats
Format: in vivo, rat
Settings: male, Sprague Dawley, rat, plasma, po, 0.3 mg/kg/day, rat, BAF312 0.3 mg/kg/d p.o., Day 1, 24 hr post-dose, mean±SEM
READOUT TYPE: concentration at 24 h (nM)
Report the figure in nM without appending any unit label.

Input line: Note concentration at 24 h for the compound shown: CCc1cc(/C(C)=N/OCc2ccc(C3CCCCC3)c(C(F)(F)F)c2)ccc1CN1CC(C(=O)O)C1
Output line: 0

---

Experiment: Plasma concentrations in repeat-dosing study, satellite rats
Type: in vivo, rat
Details: male, Sprague Dawley, rat, plasma, po, 5 mg/kg/day, FTY720 5.0 mg/kg/d p.o., Terminal (last day), 8 hr post-dose, mean±SEM
READOUT TYPE: concentration at 8 h (nM)
Just the number in nM, nothing appended.

Input line: Specify concentration at 8 h for CCCCCCCCc1ccc(CCC(N)(CO)CO)cc1 and stop.
Output line: 176
